What koff was measured for each of the following?
target_of_assay: T1, cynomolgus monkey C-MET His tag, monomeric (cynomolgus monkey, UniProt A0M8R7 25-932 (Papio anubis entry))
T1 construct: also called monomeric cyno C-MET; cyCMET
test_description: SPR Biacore, IgG captured, monomeric C-MET-His analyte
Return type: number; implicit unit s⁻¹.

GET /value?item= h224G11 (humanized 224G11) (antibody, human IgG4, V domains shown, also called Humanized h224G11; 224G11 IgG4(S228P)) VH: QVQLVQSGAEVKKPGASVKVSCKASGYIFTAYTMHWVRQAPGQGLEWMGWIKPNNGLANYAQKFQGRVTMTRDTSISTAYMELSRLRSDDTAVYYCARSEITTEFDYWGQGTLVTVSS VL: DIVMTQSPDSLAVSLGERATINCKSSESVDSYANSFLHWYQQKPGQPPKLLIYRASTRESGVPDRFSGSGSGTDFTLTISSLQAEDVAVYYCQQSKEDPLTFGGGTKVEIK &field=koff returns 0.00011

GET /value?item= 08G07 (antibody, human IgG4, V domains shown) VH: QVQLVQSGAEVKKPGASVKVSCKASGYTFTSYTMHWVRQAPGQGLEWMGWINPSGGLANYAQKFQGRVTMTRDTSTSTVYMELSSLRSEDTAVYYCARSEITTDFDYWGQGTLVTVSS VL: EIVLTQSPGTLSLSPGERATLSCRASQSVDSYANSYLHWYQQKPGQAPRLLIYRGSTRESGIPDRFSGSGSGTDFTLTISRLEPEDFAVYYCQQSKSEPLTFGGGTKVEIK &field=koff returns 2.4e-05

GET /value?item= 09B08 (antibody, IgG4, V domains shown) VH: QVQLVQSGAEVKKPGASVKVSCKASGYTFTSYTMHWVRQAPGQGLEWMGWINPNNGSTNYAQKFQGRVTMTRDTSTSTVYMELSSLRSEDTAVYYCARSEITTDFDYWGQGTLVTVSS VL: EIVLTQSPGTLSLSPGERATLSCRASQSVSSYANSYLHWYQQKPGQAPRLLIYRGSTRESGIPDRFSGSGSGTDFTLTISRLEPEDFAVYYCQQSKSDPLTFGGGTKVEIK &field=koff returns 1.2e-05

GET /value?item= MH7-3 (antibody, human IgG4, V domains shown) VH: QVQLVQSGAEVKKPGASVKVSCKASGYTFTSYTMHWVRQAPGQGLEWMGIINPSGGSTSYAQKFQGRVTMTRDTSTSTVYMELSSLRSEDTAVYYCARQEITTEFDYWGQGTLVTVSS VL: EIVLTQSPGTLSLSPGERATLSCRASQSVSSYAQSYLHWYQQKPGQAPRLLIYRGSTRETGIPDRFSGSGSGTDFTLTISRLEPEDFAVYYCQQSKESPLTFGGGTKVEIK &field=koff returns 0.000174

GET /value?item= MH1 (antibody, IgG4, V domains shown) VH: QVQLVQSGAEVKKPGASVKVSCKASGYTFTSYTMHWVRQAPGQGLEWMGWINPNGGSTSYAQKFQGRVTMTRDTSTSTVYMELSSLRSEDTAVYYCARQEITTEFDYWGQGTLVTVSS VL: EIVLTQSPGTLSLSPGERATLSCRASQSVSSYANSYLHWYQQKPGQAPRLLIYRGSTRESGIPDRFSGSGSGTDFTLTISRLEPEDFAVYYCQQSKSEPLTFGGGTKVEIK &field=koff returns 2.6e-05
